- target or system: T1, MB peptide complexed with HLA-A*02:01 on T2 cells (human)
- T1 construct: whole, on cells
- assay comment: flow cytometry, peptide-loaded T2 cells;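 also: binding of single-chain Fv antibody constructs, raised in XenoMouse, to peptide-pulsed T2 cells measured by flow cytometry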
measure: Signal/background
Output spec: single numeric token, no unit.

binder | endpoint value
18182-E1 (scFv, scFv in bacterial lysate, detected with anti-Flag M2) scFv: EVQLLESGGGLVQPGGSLRLSCAASGFTFSSHAMSWVRQAPGKGLEWVSAISGSGGGTYNADSVKGRFTISRDNSKNTLYLQMNSLRAEDTAAYYCVTGKGVHLGFDYWGQGTLVTVSSGGGGSGGGGSGGGGSELVLTQPPSVSVAPGQTARITCGGNNIGSKSVHWYQQKPGQAPVMVVYDDNDRPSGIPERFSGSNSGNTATLTISRVEAGDEADYYCQVWDSSSDHVVFGGGTKLTVL | 0.9

--- query ---
Note to self: Signal/background recorded for 18179-B12 (scFv, scFv in bacterial lysate, detected with anti-Flag M2) scFv: EVQLLESGGGLVQPGGSLRLSCAASGFTFSNAWMSWVRQAPGKGLEWVGRIKGNTYGGTTDYAAPVKGRFTISRDDSKNTLFLQMNSLKTEDTAVYYCTTPSNSGSYYNYFSVMDVWGQGTTVTVSSGGGGSGGGGSGGGGSELVMTQSPSSLSASVGDRVTITCRTSQSISSYLNWFQQKPGKAPKLLIFAASSLQSGVPSRFSGSGSGTDFTLTISSLQPEDFATYYCQQTYSMPFTFGPGTKVEIK was 1
